target of assay: T1, cynomolgus monkey CD3 epsilon 1-26_Fc fusion protein (cynomolgus monkey)
T1 construct: also called cynomolgus CD3 epsilon 1-26 Fc fusion protein
measurement protocol: SPR, human IgG1 format, graded relative to chimeric SP34; one grade for human and cynomolgus protein
result type: binding result

binder	observed result
VH1/VL15 (antibody, human IgG1, kappa, V domains shown, IgG1; also called humanized SP34 VH1/VL15 antibody; copies: 2 + 2) VH: EVQLVESGGGLVQPGGSLRLSCAASGFTFNTYAMNWVRQAPGKGLEWVARIRSKYNNYATYYADSVKGRFTISRDDSKNTLYLQMNSLRAEDTAVYYCVRHGNFGNSYVSWFAYWGQGTTVTVSS VL: EAVVTQSPATLSVSPGERATLSCRSSTGAVTTSNYANWVQQKPGQAFRGLIGGANKRAPGVPARFSGSLSGDEATLTISSLQSEDFAVYFCALWYSNLWVFGQGTKLEIKR	binds
VH1/VL8 (antibody, human IgG1, kappa, V domains shown, IgG1; also called humanized SP34 VH1/VL8 antibody; copies: 2 + 2) VH: EVQLVESGGGLVQPGGSLRLSCAASGFTFNTYAMNWVRQAPGKGLEWVARIRSKYNNYATYYADSVKGRFTISRDDSKNTLYLQMNSLRAEDTAVYYCVRHGNFGNSYVSWFAYWGQGTTVTVSS VL: EAVVTQSPATLSVSPGERATLSCRSSTGAVTTSNYANWVQEKPGQAFRGLIGGANKRAPGVPARFSGSGSGDEATLTISSLQSEDFAVYFCALWYSNLWVFGQGTKLEIKR	binds
VH1/VL19 (antibody, human IgG1, kappa, V domains shown, IgG1; also called humanized SP34 VH1/VL19 antibody; copies: 2 + 2) VH: EVQLVESGGGLVQPGGSLRLSCAASGFTFNTYAMNWVRQAPGKGLEWVARIRSKYNNYATYYADSVKGRFTISRDDSKNTLYLQMNSLRAEDTAVYYCVRHGNFGNSYVSWFAYWGQGTTVTVSS VL: EIVVTQSPATLSVSPGERATLSCRSSTGAVTTSNYANWVQEKPGQAFRGLIGGANKRAPGVPARFSGSLSGTEATLTISSLQSEDFAVYYCALWYSNLWVFGQGTKLEIKR	binds
